protocol: modulators of CD8 T cell-vesicle binding, confirmation, cherry-picked primary hits, two concentrations (AID 2810);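 also: ratio of mean FL2 vesicle stain of CD8+ cells to that row's control; lower values mean blocking of vesicle binding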
test parameters: 2C CD8+ T cell-vesicle binding, flow cytometry; response; at 7.7 µM
About 65 (5%) of roughly 1,200 compounds were called active. The entries come from a sample that favours actives as a whole.
metric name: percent response (vesicle binding) (%)

{"columns": ["compound", "metric name", "experimental result"],
 "data": [
  ["COc1ccccc1NS(=O)(=O)c1ccc(C)c(NC(=O)c2ccc(S(=O)(=O)N3CCCCCC3)cc2)c1", "percent response (vesicle binding)", 182],
  ["CC(C)[C@H]1C(=O)Nc2ccccc2N1C(=O)N[C@@H](Cc1ccccc1)C(=O)N[C@@H](Cc1ccccc1)C(=O)O", "percent response (vesicle binding)", 394],
  ["CCOc1ccccc1NC(=O)c1ccc(F)c(S(=O)(=O)N2CCC3(CC2)OCCO3)c1", "percent response (vesicle binding)", 132],
  ["Cc1ccc(NC(=O)C2c3ccccc3Oc3ccccc32)c(C)c1", "percent response (vesicle binding)", 230],
  ["COc1ccc([C@H]2CC(=O)C=C(c3cc(F)ccc3OC)C2)cc1", "percent response (vesicle binding)", 138],
  ["COc1ccc([N+](=O)[O-])cc1NC(=O)c1ccc(N(Cc2ccccc2C)S(C)(=O)=O)cc1", "percent response (vesicle binding)", 131],
  ["CCn1c(=O)cc(SCC(=O)N2CCN(c3ccccc3F)CC2)c2ccccc21", "percent response (vesicle binding)", 247],
  ["CCOC(=O)N1CCN(Cc2nc(-c3ccc(C)cc3)no2)CC1", "percent response (vesicle binding)", 286],
  ["CCCC(=O)N1CCc2cc(OC)c(OC)cc2C1COc1ccccc1OC (stereo unspecified)", "percent response (vesicle binding)", 276],
  ["COc1ccc([C@H]2CC(=O)C=C(/C=C/c3ccccc3)C2)cc1", "percent response (vesicle binding)", 286],
  ["COc1ccc([C@H]2CC(=O)C=C(c3cccc(Cl)c3)C2)cc1", "percent response (vesicle binding)", 315],
  ["COc1ccc(C2=CC(=O)CC(c3ccc(OC)cc3)C2)cc1 (stereo unspecified)", "percent response (vesicle binding)", 120],
  ["Cc1ccc2oc(=O)c(/C=C(\\O)c3sc(C)nc3C)nc2c1", "percent response (vesicle binding)", 163],
  ["Cc1cc([N+](=O)[O-])nn1CC(=O)Nc1nccs1", "percent response (vesicle binding)", 201],
  ["COc1ccc(CNC(=O)c2cccnc2SC)cc1OC", "percent response (vesicle binding)", 180],
  ["Cc1cc(C)nc(SCCn2c(N3CC(C)OC(C)C3)nc3c2c(=O)n(C)c(=O)n3C)n1 (stereo unspecified)", "percent response (vesicle binding)", 172],
  ["COc1ccc([N+](=O)[O-])cc1N(CC(=O)O)S(C)(=O)=O", "percent response (vesicle binding)", 281],
  ["COc1ccc(CNC(=O)COC(=O)CCN2C(=O)C3CC=CCC3C2=O)cc1OC (stereo unspecified)", "percent response (vesicle binding)", 239],
  ["O=C(O)CCc1ccc(S(=O)(=O)N2CCOCC2)cc1", "percent response (vesicle binding)", 233],
  ["COc1ccc(C(=O)C(C)OC(=O)c2sc(C)nc2C)cc1 (stereo unspecified)", "percent response (vesicle binding)", 113],
  ["Cc1cccc(C)c1OCc1nnc(NC(=O)CSc2ccc(Cl)cc2)s1", "percent response (vesicle binding)", 221]
]}
